meta.source: paper PMC11480844

B1: H2-Kb / E8 (parent)
chain 1: GDSVTQTEGLVTVTEGLPVKLNCTYQTTYLTIAFFWYVQYLNEAPQVLLKSSTDNKRTEHQGFHATLHKSSSSFHLQKSSAQLSDSALYYCALNTNTGKLTFGDGTVLTVKP
chain 2: EAAVTQSPRNKVAVTGGKVTLSCNQTNNHNNMYWYRQDTGHGLRLIHYSYGAGSTEKGDIPDGYKASRPSQENFSLILELATPSQTSVYFCASGDWGAGTGQLYFGEGSKLTVL
chain 3: not shown
chain 4: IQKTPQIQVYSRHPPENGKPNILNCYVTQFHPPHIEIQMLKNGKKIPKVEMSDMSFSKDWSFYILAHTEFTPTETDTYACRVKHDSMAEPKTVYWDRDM
chain 5: SIINFEKL

Variants of: B1
Assay: % of reporter cells activated (NFAT-GFP), raw; also: test concentration or dose not given here
Details: with E8; scale: % of reporter cells activated
ratio to parent overview
observable: ratio to parent

* chain 5 I3W | 1.9
* chain 5 K7F | 0.14
* chain 5 S1G | 0.205
* chain 5 L8N | 0.755
* chain 5 N4M | 0.0197
* chain 5 L8W | 0.344
* chain 5 L8C | 0.214
* chain 5 N4Q | 0.0151
* chain 5 N4L | 0.0142
* chain 5 F5L | 0.68
* chain 5 S1F | 0.0608
* chain 5 N4S | 0.0377
* chain 5 I3M | 1.45
* chain 5 K7P | 0.0848
* chain 5 I3N | 0.231
* chain 5 N4A | 0.402
* chain 5 I3Q | 0.475
* chain 5 I2Y | 0.205
* chain 5 E6L | 0.0214
* chain 5 I3P | 0.735
* chain 5 I2C | 1.31
* chain 5 I3V | 0.61
* chain 5 K7Q | 0.256
* chain 5 K7I | 0.132
* chain 5 I2Q | 0.307
* chain 5 I2G | 0.418
* chain 5 S1H | 0.0497
* chain 5 I3E | 0.331
* chain 5 L8G | 0.949
* chain 5 E6W | 0.0496
* chain 5 N4C | 0.0617
* chain 5 S1N | 0.0146
* chain 5 F5D | 0.0471
* chain 5 S1P | 0.0215
* chain 5 L8R | 0.331
* chain 5 E6P | 0.169
* chain 5 I2V | 2.6
* chain 5 L8F | 0.826
* chain 5 S1A | 0.897
* chain 5 K7G | 0.377
* chain 5 I2F | 0.604
* chain 5 S1Q | 0.0368
* chain 5 I3Y | 3.36
* chain 5 I3L | 1.93
* chain 5 K7V | 0.175
* chain 5 L8M | 0.838
* chain 5 F5V | 3.19
* chain 5 S1E | 0.252
* chain 5 E6H | 0.0243
* chain 5 E6S | 0.0471
* chain 5 F5N | 1.13
* chain 5 F5K | 0.557
* chain 5 I2D | 1.78
* chain 5 I2A | 1.19
* chain 5 L8Y | 1.23
* chain 5 I3S | 2.66
* chain 5 N4K | 0.0265
* chain 5 K7L | 0.119
* chain 5 K7H | 0.14
* chain 5 I3T | 0.273
* chain 5 L8D | 0.154
* chain 5 I2S | 1.54
* chain 5 K7A | 0.522
* chain 5 S1C | 0.0291
* chain 5 K7C | 0.196
* chain 5 K7Y | 0.121
* chain 5 I2E | 0.694
* chain 5 E6T | 0.0257
* chain 5 E6G | 0.193
* chain 5 F5A | 1.63
* chain 5 I3C | 0.982
* chain 5 K7N | 0.18
* chain 5 I3G | 0.241
* chain 5 N4Y | 0.0136
* chain 5 L8I | 0.998
* chain 5 E6N | 0.03
* chain 5 N4V | 0.637
